Tested on: velvetleaf
experiment_notes: Test C pre-/postemergence test
Format: in vivo, Abutilon theophrasti
run_conditions: 62 g ai/ha, Preemergence; scale 0 to 100
Classify by measured Velvetleaf plant response rating: Fulfilled if it is equal to or exceeds 90, Not fulfilled if it is smaller.

Observe how each entry below is paired with its result.
Cn1nc(C(F)(F)F)c(C(Cl)S(=O)(=O)c2cccc[n+]2[O-])c1OCC(F)(F)F (racemic) [Compound 36]	Not fulfilled
CC(C)c1cc[n+]([O-])c([S+]([O-])Cc2c(C(F)(F)F)nn(C)c2OC(F)F)c1 (stereo not shown) [Compound 109]	Not fulfilled
CCc1cc[n+]([O-])c([S+]([O-])Cc2c(C(F)(F)F)nn(C)c2OCC(F)(F)F)c1 (stereo not shown) [Compound 59]	Not fulfilled
Cn1nc(C(F)(F)F)c(C[S+]([O-])c2cccc[n+]2[O-])c1OCC(F)F (stereo not shown) [Compound 75]	Fulfilled
CC(Oc1c(C[S+]([O-])c2cccc[n+]2[O-])c(C(F)(F)F)nn1C)C(F)(F)F (stereo not shown) [Compound 77]	Fulfilled

Moving on to the next molecule.
Q: Velvetleaf plant response rating >= 90 for Cc1cc[n+]([O-])c(S(=O)(=O)Cc2c(C(F)(F)C(F)(F)F)nn(C)c2OCC(F)(F)F)c1 [Compound 99] ?
A: Not fulfilled
